system.name: T1, soluble FGFR1c receptor protein (human, UniProt P11362 141-376)
T1 sequence: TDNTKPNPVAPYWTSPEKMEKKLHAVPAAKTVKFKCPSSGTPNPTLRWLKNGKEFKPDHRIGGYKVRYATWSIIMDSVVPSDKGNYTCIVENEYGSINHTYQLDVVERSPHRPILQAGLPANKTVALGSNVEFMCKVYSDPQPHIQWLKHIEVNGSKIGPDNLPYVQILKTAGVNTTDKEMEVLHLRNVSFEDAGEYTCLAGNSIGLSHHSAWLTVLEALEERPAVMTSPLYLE
test.name: BLI Octet RED96, antibody on anti-hIgG Fc tip
Listed below: kon values for each entry.
Write the value in M⁻¹ s⁻¹ as a bare number.

Some solved entries appear below for comparison.
Ab92 (antibody, human IgG2, kappa, V domains shown, format in the assays not spelled out) VH: EVQLLESGGGVVQPGRSLRLSCAASGFTFSSYAMHWVRQAPGKGLEWVAVISYDGSNKYYADSVKGRFTISRDNSKNTLSLQMNSLRVEDTAIYYCVRGAGHGFPTGPDGFDIWGQGTMVTVSS VL: DIVMTQTPLSLSVTPGQPASISCRSSRSLLHSDGKTYVYWYVQKSGQPPQLLIYELSNRFSGVPDRFSGSGSRTDFTLKISRVEAEDVGVYYCMQYVEAPLTFGGGTKVEIKR
57000
Vk12 combined with the VH of Ab15 (antibody, V domains shown, captured on anti-human IgG Fc tips) VH: EVQLLESGGGVVQPGRSLRLSCAASGFTFSSYAMHWVRQAPGKGLEWVAVISYDGSNKYYADSVKGRFTISRDNSKNTLSLQMNSLRVEDTAIYYCVRGAGRGYTYGPDGFDIWGQGTMVTVSS VL: DIVMTQSPLSLPVTPGEPASISCTSSRSLLHSDGKTYVYWYLQKPGQSPQLLIYELSNRFSGVPDRFSGSGSGTDFTLKISRVEAEDVGVYYCMQYIEAPLTFGGGTKVEIK
53000
Vk5 combined with the VH of Ab15 (antibody, V domains shown, captured on anti-human IgG Fc tips) VH: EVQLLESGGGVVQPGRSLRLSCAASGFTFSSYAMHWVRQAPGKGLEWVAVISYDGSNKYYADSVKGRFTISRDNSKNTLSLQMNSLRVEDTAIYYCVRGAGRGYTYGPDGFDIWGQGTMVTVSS VL: DIVMTQTPLSLSVTPGQPASISCRSSRSLLHSDGKTYVYWYLQKPGQPPQLLIYELSNRFSGVPDRFSGSGSGTDFTLKISRVEAEDVGVYYCMQYIEAPLTFGGGTKVEIK
54100
Vk2 combined with the VH of Ab15 (antibody, V domains shown, captured on anti-human IgG Fc tips) VH: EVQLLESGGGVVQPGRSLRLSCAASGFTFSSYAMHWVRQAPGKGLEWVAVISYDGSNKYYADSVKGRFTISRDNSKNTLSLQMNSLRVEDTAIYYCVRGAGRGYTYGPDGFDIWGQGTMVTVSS VL: DIVMTQTPLSLSVTPGQPASISCTSSRSLLHSDGKTYVYWYLQKPGQPPQLLIYELSNRFSGVPDRFSGSGSRTDFTLKISRVEAEDVGVYYCMQYIEAPLTFGGGTKVEIK
54500
Vk1 combined with the VH of Ab15 (antibody, V domains shown, captured on anti-human IgG Fc tips) VH: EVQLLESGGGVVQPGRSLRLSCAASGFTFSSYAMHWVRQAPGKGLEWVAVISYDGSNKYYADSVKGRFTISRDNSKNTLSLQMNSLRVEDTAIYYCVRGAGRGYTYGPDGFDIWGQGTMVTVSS VL: DIVMTQTPLSLSVTPGQPASISCTSSRSLLHSDGKTYLYWYLQKPGQPPQLLIYELSNRFSGVPDRFSGSGSRTDFTLKISRVEAEDVGVYYCMQYIEAPLTFGGGTKVEIK
51700

Query: Report kon for Ab60 (antibody, human IgG2, kappa, V domains shown, format in the assays not spelled out) VH: EVQLLESGGGVVQPGRSLRLSCAASGFDFAGYAMHWVRQAPGKGLEWVAVISYDGSNKYYADSVKGRFTISRDNSKNTLSLQMNSLRVEDTAIYYCVRGAGRGLTYGPDGFDIWGQGTMVTVSS VL: DIVMTQTPLSLSVTPGQPASISCTSSRSLLHSDGKTYVYWYVQKSGQPPQLLIYELSNRFSGVPDRFSGSGSRTDFTLKISRVEAEDVGVYYCMQYIEAPLTFGGGTKVEIKR please.
Response: 111000
